Target: T1, membrane-bound rhesus MSLN (Rhesus (Macaca mulatta))
T1 construct: The expressed construct is not described further; also called Rh MSLN-CHOK1; RhMSLN
T1 chain: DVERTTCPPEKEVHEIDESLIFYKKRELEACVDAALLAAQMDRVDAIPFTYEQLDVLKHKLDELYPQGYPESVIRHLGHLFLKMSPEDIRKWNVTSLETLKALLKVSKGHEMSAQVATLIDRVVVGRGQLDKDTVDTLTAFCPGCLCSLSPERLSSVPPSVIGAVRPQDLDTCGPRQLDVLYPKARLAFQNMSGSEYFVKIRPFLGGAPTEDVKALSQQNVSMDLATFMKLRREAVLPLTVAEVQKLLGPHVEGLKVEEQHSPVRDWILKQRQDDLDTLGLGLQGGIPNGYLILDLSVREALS
Assay: cell ELISA, CHOK1 cells expressing rhesus MSLN
ASSAY_ENDPOINT: EC50

Exercise: What does the record list as EC50 for SV017.51F4.1A1 (antibody, V domains shown, also called antibody from hybridoma clone SV017.51F4.1A1) VH: EVQLVESGGGLVQPGGSLRLSCAATGFTFSSYWMHWVRQGPGKGLVWVSRINSDGTSTVYADSVKGRFTISRDNAKNTLYLQMNSLRAEDTAVYYCARGRGIMTYWGQGTLVTVSS VL: DIQMTQSPSSLSASVGDRVTITCRASQDIGSWLTWYQRKPEKAPKSLIYAASSLQSGVPSRFSGSGSGTDFTLTISSLQPEDFATYYCQQYKSYPLTFGQGAKLEIK ?
Solution: 0.26 µg/mL
